Catalogue of melting point values

Short answer for CC(C)[C@@H](C(=O)O)N(Cc1ccc(-c2ccccc2-c2nnn[nH]2)cc1)C(=O)CCCCO[N+](=O)[O-] [Example 1g] : melting point was 108 to 111 °C

###

Target: Human angiotensin II type 1 receptor (Homo sapiens)
Construct: Cerep, Seattle, Wash; (contract laboratory that ran the assay)
Sequence (P30556 whole entry): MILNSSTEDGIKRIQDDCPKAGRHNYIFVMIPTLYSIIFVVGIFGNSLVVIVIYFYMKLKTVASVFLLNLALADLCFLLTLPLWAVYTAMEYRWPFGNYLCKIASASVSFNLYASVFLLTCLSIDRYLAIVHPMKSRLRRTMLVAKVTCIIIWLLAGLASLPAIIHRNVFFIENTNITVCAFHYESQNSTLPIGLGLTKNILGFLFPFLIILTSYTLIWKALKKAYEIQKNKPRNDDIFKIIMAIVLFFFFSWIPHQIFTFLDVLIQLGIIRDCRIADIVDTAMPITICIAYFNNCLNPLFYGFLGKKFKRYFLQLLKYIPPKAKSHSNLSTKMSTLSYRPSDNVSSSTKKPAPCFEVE
Test: Human angiotensin II type 1 receptor binding assay
Details: percent inhibition of control specific binding at 100 nM test compound; read-out: AT1 Binding Human % Inhibition at 100 nM
Sorting guide: entries reporting inhibition at 0.1 µM beneath 10% go in the T pile, the rest go in the F pile.

The examples below pair each entry with its known result.
CC(C)[C@@H](C(=O)O)N(Cc1ccc(-c2ccccc2-c2nnn[nH]2)cc1)C(=O)CCCCO[N+](=O)[O-] [Example 1g] | F
CC(C)[C@@H](C(=O)OC(C)(C)C)N(Cc1ccc(-c2ccccc2-c2nnn(C(c3ccccc3)(c3ccccc3)c3ccccc3)n2)cc1)C(=O)CCCCCO[N+](=O)[O-] [Example 2f] | F
CCCCC(=O)N(Cc1ccc(-c2ccccc2-c2nnn[nH]2)cc1)[C@H](C(=O)N(C)CCO[N+](=O)[O-])C(C)C [Example 9] | T
CCc1nc2c(C)cc(C)nc2n1Cc1ccc(-c2ccccc2S(=O)(=O)NC(=O)c2cccc(CO[N+](=O)[O-])c2)cc1 [Example 13] | F
CC(C)[C@@H](C(=O)N(C)C)N(Cc1ccc(-c2ccccc2-c2nnn[nH]2)cc1)C(=O)CCCCO[N+](=O)[O-] [Example 6] | F

input: Just wondering, is inhibition at 0.1 µM of CC(C)[C@@H](C(=O)O)N(Cc1ccc(-c2ccccc2-c2nnn[nH]2)cc1)C(=O)c1cccc(CO[N+](=O)[O-])c1 [Example 3b] below 10%?
output: T

input: Just wondering, is inhibition at 0.1 µM of CCCCC(=O)N(Cc1ccc(-c2ccccc2-c2nnn[nH]2)cc1)[C@H](C(=O)N(CCO[N+](=O)[O-])CCO[N+](=O)[O-])C(C)C [Example 8] below 10%?
output: T

###

Catalogue of melting point values

CCCCC(=O)N(Cc1ccc(-c2ccccc2-c2nnn[nH]2)cc1)[C@H](C(=O)N(CCO[N+](=O)[O-])CCO[N+](=O)[O-])C(C)C | 87 to 90 °C
CCc1nc2c(C)cc(C)nc2n1Cc1ccc(-c2ccccc2S(=O)(=O)NC(=O)c2cccc(CO[N+](=O)[O-])c2)cc1 | 123 °C (dec.)
CC(C)[C@@H](C(=O)O)N(Cc1ccc(-c2ccccc2-c2nnn[nH]2)cc1)C(=O)CCCCCO[N+](=O)[O-] | 196 °C (dec.)
CC(C)[C@@H](C(=O)O)N(Cc1ccc(-c2ccccc2-c2nnn[nH]2)cc1)C(=O)CCC(CO[N+](=O)[O-])O[N+](=O)[O-] (some centres unmarked) | 182 °C (dec.)

Here is another molecule to look at.
Short answer for CC(C)[C@@H](C(=O)N(C)C)N(Cc1ccc(-c2ccccc2-c2nnn[nH]2)cc1)C(=O)CCCCO[N+](=O)[O-] : melting point was 75 to 78 °C

###

Counter-ions that a name gives are not always drawn.
Catalogue of melting point values

Answered cases to consult:
CC(C)[C@@H](C(=O)O)N(Cc1ccc(-c2ccccc2-c2nnn[nH]2)cc1)C(=O)c1cccc(CO[N+](=O)[O-])c1 | 151 °C (dec.)
CC(C)[C@@H](C(=O)O)N(Cc1ccc(-c2ccccc2-c2nnn[nH]2)cc1)C(=O)CCCC(CO[N+](=O)[O-])O[N+](=O)[O-] (stereo partly drawn) | 192 °C (dec.)

Short answer for CCCCC(=O)N(Cc1ccc(-c2ccccc2-c2nnn[nH]2)cc1)[C@H](C(=O)N(C)CCO[N+](=O)[O-])C(C)C : melting point was 86 to 89 °C

Short answer for CCCCC(=O)N(Cc1ccc(-c2ccccc2-c2nnn[nH]2)cc1)[C@H](C(=O)N1CCC(CO[N+](=O)[O-])CC1)C(C)C : melting point was 86 to 88 °C

Short answer for CCCCC(=O)N(CCCO[N+](=O)[O-])Cc1ccc(-c2ccccc2-c2nnn[nH]2)cc1 : melting point was 54 to 59 °C

Short answer for CCOc1nc2cccc(CO[N+](=O)[O-])c2n1Cc1ccc(-c2ccccc2-c2nnn[nH]2)cc1 (as salt: nitrate) [Example 14e] : melting point was 126 °C (dec.)
